EXPERIMENTAL SYSTEM: human cathepsin S (CatS) (Homo sapiens, UniProt P25774)
Construct: made in house; host or cells: baculovirus system (insect cells)
Sequence (P25774 115-331): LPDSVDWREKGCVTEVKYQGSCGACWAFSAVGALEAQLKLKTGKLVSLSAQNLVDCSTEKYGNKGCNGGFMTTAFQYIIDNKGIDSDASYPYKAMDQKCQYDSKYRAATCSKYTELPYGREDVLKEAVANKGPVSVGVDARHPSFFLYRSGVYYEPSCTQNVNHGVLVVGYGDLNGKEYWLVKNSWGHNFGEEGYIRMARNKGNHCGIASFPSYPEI
ASSAY SUMMARY: Recombinant human cathepsin S (CatS) fluorogenic substrate inhibition assay
Type: biochemical
CONDITION LABEL: recombinant human CatS, 10 μM Z-Valine-Valine-Arginine-AMC, pH 5.0; average of results obtained; read-out: CatS IC50
PROPERTY MEASURED: IC50 (nM)

The following compounds have reported results that may help.
CCCC(=O)NCc1cc(-c2nn(CCCN3CCC(N4CCCC4=O)CC3)c3c2CN(S(C)(=O)=O)CC3)ccc1C(F)(F)F    90
CS(=O)(=O)N1CCc2c(c(-c3ccc(C(F)(F)F)c(CNC(=O)C4CCCCCC4)c3)nn2CC(O)CN2CCC(N3CCCC3=O)CC2)C1 (stereo not drawn)    270

(1) CS(=O)(=O)N1CCc2c(c(-c3ccc(Cl)c(NS(=O)(=O)/C=C/c4ccccc4)c3)nn2CCCN2CCN(c3cccc(Cl)c3)CC2)C1
(2) Cn1ccnc1C(=O)NCc1cc(-c2nn(CC(O)CN3CCC(N4CCCC4=O)CC3)c3c2CN(S(C)(=O)=O)CC3)ccc1C(F)(F)F (stereo not drawn)
(3) CS(=O)(=O)N1CCc2c(c(-c3ccc(C(F)(F)F)c(CNC(=O)c4cc5ccccc5s4)c3)nn2CC(O)CN2CCC(N3CCCC3=O)CC2)C1 (stereo not drawn)
[in] Reorder the items by IC50, least to greatest. Reply with the item labels sorted in the order that was asked for.
[out] 3, 1, 2

(a) CS(=O)(=O)N1CCc2c(c(-c3ccc(C(F)(F)F)c(CNC(=O)CN4CCC(O)C4)c3)nn2CCCN2CCC(N3CCCC3=O)CC2)C1 (stereo not drawn)
(b) Cc1ccsc1C(=O)NCc1cc(-c2nn(CC(O)CN3CCC(N4CCCC4=O)CC3)c3c2CN(S(C)(=O)=O)CC3)ccc1C(F)(F)F (stereo not drawn)
(c) CC(C)=CC(=O)NCc1cc(-c2nn(CCCN3CCC(N4CCCC4=O)CC3)c3c2CN(S(C)(=O)=O)CC3)ccc1C(F)(F)F
[in] Rank descending by IC50. Reply with the item labels sorted in the order that was asked for.
[out] a, b, c
(a: 820 nM, b: 160 nM, c: 30 nM)

---

EXPERIMENTAL SYSTEM: human cathepsin S (CatS) (Homo sapiens)
Construct: made in house; host or cells: baculovirus system (insect cells)
ASSAY SUMMARY: Recombinant human cathepsin S (CatS) fluorogenic substrate inhibition assay
Type: biochemical
CONDITION LABEL: recombinant human CatS, 10 μM Z-Valine-Valine-Arginine-AMC, pH 5.0; average of results obtained; read-out: CatS IC50
pIC50: −log10 of the molar value.
PROPERTY MEASURED: pIC50

(a) CS(=O)(=O)N1CCc2c(c(-c3ccc(C(F)(F)F)c(CNC(=O)N4CCOCC4)c3)nn2CCCN2CCC(N3CCCC3=O)CC2)C1 [Example 45]
(b) Cc1nn(C)c2sc(C(=O)NCc3cc(-c4nn(CC(O)CN5CCC(N6CCCC6=O)CC5)c5c4CN(S(C)(=O)=O)CC5)ccc3C(F)(F)F)cc12 (stereo not drawn) [Example 123]
(c) Cc1noc(C2CCN(CC(O)Cn3nc(-c4ccc(C(F)(F)F)c(CNC(=O)CC(C)C)c4)c4c3CCN(S(C)(=O)=O)C4)CC2)n1 (stereo not drawn) [Example 286]
[in] I'd appreciate it if you sorted the entries above by their pIC50, lowest to highest. Reply with the item labels sorted in the order that was asked for.
[out] b, a, c
(b: 6.74, a: 7.10, c: 7.52)
